Test system: RXF 393 renal
assay.remarks: NCI-60 one-dose screen, 48 h
protocol.conditions: 10 µM unless noted
Compounds without any hit were thinned out: in the full panel of roughly 83,000, 20% have a hit. Activity calls are given as the source filed them. The calls were made as follows: active = growth percent below 10; inactive = the rest.
Write down the outcome that applies. Available outcomes: YES = active, NO = inactive

Answered cases to consult:
compound: CCOC(=O)c1cn2ncnc(Oc3ccc(NC(=O)NC4CCCCC4)c(Cl)c3)c2c1C
cat: NO

compound: Cc1ccc(-c2nc3nc(-c4ccc(F)cc4)nc(N4CCNCC4)c3o2)cc1
cat: NO

compound: CC(C)(C)c1cc(-c2nc3ccc(N4CCN(S(C)(=O)=O)CC4)cc3[nH]2)cc(C(C)(C)C)c1O
cat: NO

compound: CCOC(=O)/C=C1\S/C(=N\Nc2cc(=O)[nH]c3ccc(Cl)cc23)N(c2ccccc2)C1=O
cat: NO

Now for a further compound.
Exercise: Answer briefly: the call reported for `COc1ccc2[nH]cc(-c3nc(-c4c[nH]c5ccncc45)cs3)c2c1` in this assay.
Key: YES

====

Test system: SNB-19 CNS
assay.remarks: NCI-60 one-dose screen, 48 h (100 = growth as untreated, 0 = no growth, -100 = all killed)
protocol.conditions: 10 µM unless noted
Compounds without any hit were thinned out: in the full panel of roughly 83,000, 20% have a hit.
result.type: growth (%)
Kindly provide the numeric value in % only, without the unit symbol.

Exercise: Request body: readout growth, system SNB-19 CNS, query `CCc1n(Cc2ccc3ccccc3c2)cc[n+]1Cc1ccc2ccccc2c1` . Return the value.
Key: 5.41

Exercise: Param readout = growth; param system = SNB-19 CNS; param query = `CN1C(=O)/C(=C/c2cn(-c3ccccc3)nc2-c2ccccc2)SC1=S` ; response: value
Key: 100

Exercise: Kindly state the measured growth obtained for `O=S(=O)(NCCNc1nccc(-c2c(-c3cccc(F)c3)nc3occn23)n1)c1ccc(Br)cc1` with SNB-19 CNS.
Key: 93.3

Exercise: Query for SNB-19 CNS: what growth does the record show for `O=C1Nc2ccccc2[C@]12CC(c1ccccc1)=NN2` ?
Key: 52.7

Exercise: Request - read-out growth | tested on SNB-19 CNS | compound `Cc1ccc(/C=C2\CN(C(=O)OC(C)(C)C)C/C(=C\c3ccc(C)cc3)C2=O)cc1`
Key: 71.4

====

Parameter: growth. Scope: all listed entries.
System: COLO 205 colon
assay.remarks: NCI-60 one-dose screen, 48 h (100 = growth as untreated, 0 = no growth, -100 = all killed)
protocol.conditions: 10 µM unless noted
About 83,000 compounds went through this panel and 20% of them were active in at least one assay; those are over-represented in the sample as a whole. Calls of active or inactive are those of the source. Rule for the calls: active = growth percent below 10; inactive = the rest.

Observe how each entry below is paired with its result.
chemical.string: COC(=O)c1ccc2c(c1)C(=O)c1c-2n(CCCN)c(=O)c2cc([N+](=O)[O-])ccc12
assay.system: COLO 205 colon
measurement: -100% (active)
--
chemical.string: CCN(CC)CCOc1ccc(-c2c(-c3ccccc3)c(=O)oc3ccccc23)cc1
assay.system: COLO 205 colon
measurement: 81.2% (inactive)
--
chemical.string: O=C1Nc2ccccc2/C1=C\c1nc(-c2ccccc2)n2ccccc12
assay.system: COLO 205 colon
measurement: 110% (inactive)
--
chemical.string: CN(C)c1ccc(/C=C/C(=O)c2ccc(-n3cc(CN4CCN(c5cc6c(cc5F)c(=O)c(C(=O)O)cn6C5CC5)CC4)nn3)cc2)cc1
assay.system: COLO 205 colon
measurement: 105% (inactive)
--
chemical.string: O=C(/C=C/c1ccc(Cl)cc1)c1cccc(Nc2nc(Nc3ccccc3)nc(Nc3ccccc3)n2)c1
assay.system: COLO 205 colon
measurement: 93.1% (inactive)

// switching to the query compound
Exercise: Which growth is reported for this compound? `C#Cc1cccc(Nc2ncnc3ccc(-c4cncc(NS(C)(=O)=O)c4)cc23)c1`
Key: 17.7% (inactive)

====

Test system: OVCAR-5 ovarian
assay.remarks: NCI-60 one-dose screen, 48 h
protocol.conditions: 10 µM unless noted
The panel holds about 83,000 compounds, 20% with a hit somewhere; the sample as a whole holds those more often. Active and inactive are the calls of the source. Rule for the calls: active = growth percent below 10; inactive = the rest.
# valid calls are yes (active), no (inactive); nothing else

chemical.string: CC(=O)OCc1nc(C#N)c(N(C)C)o1
cat: no

Exercise: For this compound, state the assay outcome: `O=C(NCCCN1CCOCC1)c1cccc(N2C(=O)/C(=C/c3ccc(F)cc3)SC2=S)c1`
Key: no

Exercise: What did this assay record as the result for `CCN(CC)CCCN1C(=O)c2c(c(C)c3c(oc4cc(O)ccc43)c2C)C1=O` ?
Key: yes

Exercise: Dear all, I need the recorded test outcome for `O=C(CCC(=O)N/N=C/c1ccccc1O)N/N=C/c1ccccc1O` , thank you.
Key: no

Exercise: Dear all, I need the recorded test outcome for `COc1ccc(/C=C2\COc3ccc(O)c(O)c3C2=O)cc1` , thank you.
Key: yes

====

# growth annotations
Test system: OVCAR-5 ovarian
assay.remarks: NCI-60 one-dose screen, 48 h (100 = growth as untreated, 0 = no growth, -100 = all killed)
protocol.conditions: 10 µM unless noted
The panel holds about 83,000 compounds, 20% with a hit somewhere; the sample as a whole holds those more often.
Number only, in %; omit the unit.

compound: COc1ccc2c(c1)c(-c1noc(C(=O)c3cn(C)c4ccc(Br)cc34)n1)cn2C
display.unit: %
growth: 107
--
compound: Cn1cc(-c2csc(-c3c[nH]c4ccc(Br)cc34)n2)c2cnccc21
display.unit: %
growth: -95.7
--
compound: OCCNCCCOc1ccc2ncnc(Nc3ccc(Oc4cccc(C(F)(F)F)c4)c(Cl)c3)c2c1
display.unit: %
growth: 72.8
--
compound: CCc1ccc(Oc2cn[nH]c2-c2ccc(OCCc3ccc(F)cc3)cc2O)cc1
display.unit: %
growth: 90.6
--
compound: N#Cc1nn(-c2cc(=O)[nH]c3ccc(Cl)cc23)c(N)c1C#N
display.unit: %
growth: 105

Exercise: What value of growth has been recorded for this entry: CN(C)CCCC1(c2ccc(F)cc2)OCc2cc(-c3cccc4[nH]ccc34)ccc21 (stereo not given)
Key: 70.1

Exercise: Reported growth for `O=S(=O)(NCCNc1cc(-c2c(-c3cccc(O)c3)nc3sccn23)ccn1)c1ccc(C(F)(F)F)cc1` : what is it?
Key: 93.5

Exercise: Give the measured growth of `Cn1c(=O)c2c(nc(NC3=NS(=O)(=O)c4ccccc43)n2CC(=O)N2CCc3ccccc32)n(C)c1=O` .
Key: 101

Exercise: Suppose we examine the compound `CC(C)n1cnc2c(=S)nc[nH]c21` ; what growth value has been reported?
Key: 121

Exercise: Tell me the measured growth of `O=C(c1ccc(-c2ccccc2)cc1)c1ccc([N+](=O)[O-])cc1` , please.
Key: 120

====

Tested on: LOX IMVI melanoma
assay.remarks: NCI-60 one-dose screen, 48 h
protocol.conditions: 10 µM unless noted
About 83,000 compounds went through this panel and 20% of them were active in at least one assay; those are over-represented in the sample as a whole. Active and inactive are the calls of the source. Rule for the calls: active = growth percent below 10; inactive = the rest.
Your answer must be one of the following: true (active), false (inactive)

Example entries begin here.
molecule: Cc1ccc(/C=N/Nc2nc(Nc3ccccc3)nc(-n3nc(C)cc3C)n2)cc1
cat: false

molecule: Cc1ccccc1Cn1cnc2ccc(-c3cc(NC(=O)c4ccc(NC5CCN(C)CC5)cc4)n[nH]3)cc21
cat: false

molecule: O=C1NC(=O)c2c1c1c3ccccc3ccc1c1[nH]c3ccc(Br)cc3c21
cat: false

molecule: Cc1ccc(CNc2ccc(Cl)cc2NCc2ccc(C)c(O)c2)cc1O
cat: true

molecule: O=C1C(Cl)=C(Oc2ccccc2)C(=O)c2ccccc21
cat: false

Exercise: Status in this test for `COc1ccc(-c2csc(N(C(=O)N3CCN(c4cc5c(cc4F)c(=O)c(C(=O)O)cn5C4CC4)CC3)c3ccccc3)n2)cc1` ?
Key: true

Exercise: Tell me the recorded outcome of this test for `CCCCN[C@H]1CC[C@@]2(C)[C@@H](CC[C@@]3(C)[C@H]2[C@H](O)C[C@H]2/C(=C(\CCC=C(C)C)C(=O)OC)[C@@H](OC(C)=O)C[C@@]23C)[C@@H]1C` .
Key: false

Exercise: # fetch the recorded call for COC1C[C@H](O[C@@H]2C[C@H](O[C@@H]3C[C@H](O[C@@H]4C(=O)c5c(cc6cc(O[C@H]7C[C@@H](O[C@H]8C[C@@H](O)[C@H](O)C(C)O8)[C@H](O)C(C)O7)c(C)c(O)c6c5O)C[C@H]4C(OC)C(=O)[C@@H](O)[C@@H](C)O)OC(C)[C@H]3O)OC(C)[C@@H]2O)OC(C)[C@@H]1O (stereo partly drawn) here
Key: true

Exercise: For CC(O)c1cnc(/C=C2\SC(=S)N(Cc3ccccc3)C2=O)s1 (stereo not drawn) , what call appears in the results of this test?
Key: false

Exercise: I would be grateful if you could indicate the recorded call for `Oc1c(Cl)cc(Cl)c2ccc(Cn3cc(-c4cc(C(F)(F)F)cc(C(F)(F)F)c4)nn3)nc12` .
Key: true

Exercise: Hello, I am checking results. What call was entered for `CC1(C)c2[nH]c3ccccc3c2C[C@]2(C)[C@H]3CC=C4[C@@H]5C[C@@](C)(C(N)=O)CC[C@]5(C)CC[C@@]4(C)[C@]3(C)CC[C@@H]12` ?
Key: false

Exercise: # outcome recorded in this test, key = N#CC1CCc2c(c(-c3cn[nH]c3C(F)(F)F)nc3c(F)cc4[nH]ncc4c23)C1 (stereo not drawn)
Key: false

Exercise: Record lookup: outcome of this test for `C=CCn1c(SCC(=O)NCc2cc(C)c(O)c(C)c2)nc2ccc(Cl)cc2c1=O` ?
Key: false

Exercise: Each molecule tested received a call. Report the one for `O=C1/C(=C\c2cn(-c3ccccc3)nc2-c2ccc(-c3cccs3)cc2)CCc2ccccc21` .
Key: false

Exercise: Field: outcome | Entry: COc1cc2c(c(OC)c1OC)CCC(c1cccc(C(=O)Nc3cccc(Br)c3)c1)O2 (stereo not drawn)
Key: false

Exercise: Which result was noted for this molecule in the test: CCOC(=O)CNP(=O)(OC[C@@H](Cc1ccccc1)NC(=O)c1cc2ccccc2s1)Oc1ccccc1 (stereo partly drawn)
Key: false

Exercise: How did this test come out for `O=C(CSc1nnc2n1S(=O)(=O)c1ccccc1N2c1ccccc1)Nc1nc2ccc(F)cc2s1` ?
Key: false

Exercise: I would be grateful if you could indicate the recorded call for `Cn1cc(-c2nc(-c3c[nH]c4ccncc34)cs2)c2ccccc21` .
Key: true

Exercise: For `O=C(Nc1ccc(NC(=O)c2cc(=O)[nH]c3ccccc23)cc1)Nc1cccc(C(F)(F)F)c1` , what call appears in the results of this test?
Key: false

Exercise: # fetch the recorded call for `Cn1ccc2c3c(ccc21)CC3=O` here
Key: false

Exercise: Test call for this molecule, please: `CCOC(=O)C(=Cc1cccc(Cl)c1)C(=O)OCC`
Key: true

Exercise: Outcome logged for `CSc1nc2sc3c(c2c(=O)n1-c1ccc([N+](=O)[O-])cc1)CCCCC3` in this assay:
Key: false

Exercise: Give the logged outcome of this assay for the following molecule: `Cc1ccc(-c2nc(/C=C3/C(=O)Nc4ccccc43)c3ccccn23)cc1`
Key: false

Exercise: Would you mind telling me which call this test gave COC(C(=O)[C@@H](O)[C@@H](C)O)[C@@H]1Cc2cc3cc(O[C@H]4C[C@@H](O[C@H]5C[C@@H](O)[C@H](O)C(C)O5)[C@H](O)C(C)O4)cc(O)c3c(O)c2C(=O)[C@H]1O[C@H]1C[C@@H](O[C@H]2C[C@@H](O[C@H]3C[C@@H](OC)[C@H](O)C(C)O3)[C@@H](O)C(C)O2)[C@H](O)C(C)O1 (stereo partly drawn) ?
Key: false
